Origin of the recorded values: ChEMBL document CHEMBL1671832

- Assay Summary: Bioavailability in mouse at 5 mg/kg, iv and 20 mg/kg, po
- Format: ADME, organism-based
- Run Parameters: in vivo

Molecular String: C[C@H]1C[C@@H](NS(=O)(=O)c2cc(Br)ccc2Br)CN1C#N
Units: %
bioavailability: 1

----------
- Assay Summary: Plasma clearance in mouse at 5 mg/kg, iv and 20 mg/kg, po
- Type: ADME, organism-based
Measure Name: clearance

Molecular String: C[C@H]1C[C@@H](NS(=O)(=O)c2cc(Br)ccc2Br)CN1C#N
Val: 16 mL/min/kg

----------
- Assay Summary: Half life in dog at 5 mg/kg, iv and 10 mg/kg, po
- Type: ADME, organism-based, Canis lupus familiaris
- Run Parameters: in vivo

Molecular String: C[C@H]1C[C@@H](NS(=O)(=O)c2cc(Br)ccc2Br)CN1C#N
Units: min
half-life: 42

----------
Attribute: IC50
- System Name: Cathepsin B (Homo sapiens, UniProt P07858)
- Assay Summary: Inhibition of human recombinant cathepsin B after 1 hr

Molecular String: N#CN1CC[C@@H](NS(=O)(=O)c2ccccc2)C1
System Name: Cathepsin B (Homo sapiens, UniProt P07858)
Censoring Sign: =
IC50 (µM): 10
--
Molecular String: C[C@H]1C[C@@H](NS(=O)(=O)c2cc(Br)ccc2Br)CN1C#N
System Name: Cathepsin B (Homo sapiens, UniProt P07858)
Censoring Sign: >
IC50 (µM): 25.1
--
Molecular String: N#CN1CC[C@@H](NS(=O)(=O)c2cccc(Br)c2)C1
System Name: Cathepsin B (Homo sapiens, UniProt P07858)
Censoring Sign: =
IC50 (µM): 6.31
--
Molecular String: N#CN1CC[C@@H](NS(=O)(=O)c2cc(Br)ccc2Br)C1
System Name: Cathepsin B (Homo sapiens, UniProt P07858)
Censoring Sign: =
IC50 (µM): 1.58
--
Molecular String: C[C@@H]1C[C@@H](NS(=O)(=O)c2cccc(Br)c2)CN1C#N
System Name: Cathepsin B (Homo sapiens, UniProt P07858)
Censoring Sign: >
IC50 (µM): 25.1

----------
Readings of remaining at 0.5 h for the listed compounds
- Assay Summary: Metabolic stability in rat plasma assessed as compound remaining after 30 mins by HPLC analysis
- Assay type: ADME, cell-free
- Run Parameters: read-out: Stability

Compound: N#CN1CC[C@@H](NS(=O)(=O)c2ccccc2)C1
Censoring Sign: =
remaining at 0.5 h [%]: 30
--
Compound: N#CN1CCC(CCc2ccccc2)C1 (stereo unspecified)
Censoring Sign: =
remaining at 0.5 h [%]: 13
--
Compound: COc1ccc(OC)c(S(=O)(=O)N[C@@H]2CCN(C#N)C2)c1
Censoring Sign: =
remaining at 0.5 h [%]: 23
--
Compound: C[C@@H]1C[C@@H](NS(=O)(=O)c2cccc(Br)c2)CN1C#N
Censoring Sign: =
remaining at 0.5 h [%]: 45
--
Compound: N#CN1CC[C@H](NS(=O)(=O)c2ccccc2)C1
Censoring Sign: =
remaining at 0.5 h [%]: 48
--
Compound: C[C@H]1C[C@@H](NS(=O)(=O)c2cc(Br)ccc2Br)CN1C#N
Censoring Sign: =
remaining at 0.5 h [%]: 88
--
Compound: O=CN1CC[C@@H](NS(=O)(=O)c2cccc(Br)c2)C1
Censoring Sign: =
remaining at 0.5 h [%]: 95
--
Compound: N#CN1CC[C@@H](NS(=O)(=O)c2cc(Br)ccc2Br)C1
Censoring Sign: =
remaining at 0.5 h [%]: 18
--
Compound: CC(C)(C)OC(=O)N1CC[C@@H](NS(=O)(=O)c2cccc(Br)c2)C1
Censoring Sign: ≥
remaining at 0.5 h [%]: 100
--
Compound: COc1ccc(OC)c(S(=O)(=O)N[C@@H]2C[C@@H](C)N(C#N)C2)c1
Censoring Sign: =
remaining at 0.5 h [%]: 88
--
Compound: N#CN1CC[C@@H](NS(=O)(=O)c2cccc(Br)c2)C1
Censoring Sign: =
remaining at 0.5 h [%]: 18
